The measurements presented in this section are drawn from PubChem BioAssay AID1996.

stated.conditions: buffer; pH 7.4; 200.0 µM
outcome.measure: solubility kinetic (µg/mL)

• CC(C)C(NC(=O)c1ccccc1NC(=O)C(C)(C)C)C(=O)N1CCOCC1 (configuration not stated) = 37
• Cc1sc2ncnc(N(C)C3CCCCC3)c2c1C = 1.1
• COC(=O)c1cc(S(=O)(=O)N2CCCC(C)C2)cn1C (configuration not stated) = 43.2
• O=C(COC(=O)C1CC2C=CC1C2)Nc1ccccc1[N+](=O)[O-] (configuration not stated) = 29.4
• CSC(=NCc1ccco1)NC#N = 27.8
• Cc1ccc(C(=O)OCC(=O)N2CCCC2)cc1 = 32.7
• CCn1c(=O)c(C(=O)Nc2ccccc2F)c(O)c2ccccc21 = 0.4
• CC1CC(C)CN(C(=O)C(Cc2ccccc2)n2cccc2)C1 (configuration not stated) = 4.4
